B1: unnamed (parent)
chain 1: FENAIKKTKNQENNLTLLPIKSTEEEKDDIKNGKDIKKEIDNDKENIKTNNAKDHSTYIKSYLNTNVNDGLKYLFIPSHNSFIKKYSVFNQINDGMLLNEKNDVKNNEDYKNVDYKNVNFLQYDFKELSNYNIANSIDILQEKEGHLDFVIIPHYTFLDYYKHLSYNSIYHKYSTHGKYIAVDAFIKKINERYDQVKSKCNDIKNDLIATIKKLEHPYDINNKNDDSYRYDISEEIDDKSEETDDETEEVEDSIQDTDSNHTPSNKKKNDLMNRTFKKMMDEYNTKKKKLIKCIKNHENDFNKICMDMKNYGTNLFEQLSCYNNNFCNTNGIRYHYDEYIHKLILSVKSKNLNKDLSDMTNILQQSELLLTNLNKKMGSYIYIDTIKFIHKEMKHIFNRIEYHTKIINDKTKIIQDKIKLNIWRTFQKDELLKRILDMSNEYSLFITSDHLRQMLYNTFYSKEKHLNNIFHHLIYVLQMKFNDVPIKMEYFQTYKKNKPLTQ
chain 2: EPGTVFTTVEDLGSKILLTCSLNDSATEVTGHRWLKGGVVLKEDALPGQKTEFKVDSDDQWGEYSCVFLPEPMGTANIQLHGPPRVKAVKSSEHINEGETAMLVCKSESVPPVTDWAWYKITDSEDKALMNGSESRFFVSSSQGRSELHIENLNMEADPGQYRCNGTSSKGSDQAIITLRVRSHLAAL

variants of: B1; assay: SPR; conditions: with partner chain of the complex shown; plateau of the highest curve of four 2-fold serial dilutions (600 to 75 nM); read off a plot
Could you please mark true for values of response (response units) below 200 and false for values at or above it?

| residue-change | classification |
| --- | --- |
| chain 1 Q195K | false |
| chain 1 Y173S | false |
| chain 1 R192T | true |
| chain 1 H176Y | false |
| chain 1 Y179C | true |
| chain 1 D124H | false |
